Reference source for all entries: patent US20190134153A1

Target: SAPK3(h) (Homo sapiens, UniProt P53778)
Sequence (P53778 1-367): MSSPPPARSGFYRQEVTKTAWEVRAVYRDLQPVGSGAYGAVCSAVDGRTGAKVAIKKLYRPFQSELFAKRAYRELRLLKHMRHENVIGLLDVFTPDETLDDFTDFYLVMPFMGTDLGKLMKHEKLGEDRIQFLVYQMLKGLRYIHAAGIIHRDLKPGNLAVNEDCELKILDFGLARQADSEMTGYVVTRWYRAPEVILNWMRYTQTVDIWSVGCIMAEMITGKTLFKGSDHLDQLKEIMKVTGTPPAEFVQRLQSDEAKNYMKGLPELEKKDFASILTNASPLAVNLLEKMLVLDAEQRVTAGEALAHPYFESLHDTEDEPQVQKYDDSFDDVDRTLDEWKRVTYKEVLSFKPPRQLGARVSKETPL
Test: Kinase Profiling Assay
Format: biochemical
Conditions: 100 μM
quantity_name: % activity (%)
Give bare numbers, in %.

Consider the reported % activity for these sequences:
[
  {
    "ordered_residues": "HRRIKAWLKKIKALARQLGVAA [MMI-0500]",
    "tested_target": "SAPK3(h) (Homo sapiens, UniProt P53778)",
    "quantity_name": "% activity",
    "measurement": 24
  },
  {
    "ordered_residues": "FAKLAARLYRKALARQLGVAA [MMI-0300]",
    "tested_target": "SAPK3(h) (Homo sapiens, UniProt P53778)",
    "quantity_name": "% activity",
    "measurement": 84
  },
  {
    "ordered_residues": "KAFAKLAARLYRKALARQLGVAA [MMI-0400]",
    "tested_target": "SAPK3(h) (Homo sapiens, UniProt P53778)",
    "quantity_name": "% activity",
    "measurement": 79
  }
]

Now take the following sequence into account.
Challenge: % activity lookup needed for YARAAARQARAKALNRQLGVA [MMI-0200] , thanks.
Response given: 97

###

Molecular target: ALK(h) (Homo sapiens, UniProt Q9UM73)
Sequence (Q9UM73 19-1620): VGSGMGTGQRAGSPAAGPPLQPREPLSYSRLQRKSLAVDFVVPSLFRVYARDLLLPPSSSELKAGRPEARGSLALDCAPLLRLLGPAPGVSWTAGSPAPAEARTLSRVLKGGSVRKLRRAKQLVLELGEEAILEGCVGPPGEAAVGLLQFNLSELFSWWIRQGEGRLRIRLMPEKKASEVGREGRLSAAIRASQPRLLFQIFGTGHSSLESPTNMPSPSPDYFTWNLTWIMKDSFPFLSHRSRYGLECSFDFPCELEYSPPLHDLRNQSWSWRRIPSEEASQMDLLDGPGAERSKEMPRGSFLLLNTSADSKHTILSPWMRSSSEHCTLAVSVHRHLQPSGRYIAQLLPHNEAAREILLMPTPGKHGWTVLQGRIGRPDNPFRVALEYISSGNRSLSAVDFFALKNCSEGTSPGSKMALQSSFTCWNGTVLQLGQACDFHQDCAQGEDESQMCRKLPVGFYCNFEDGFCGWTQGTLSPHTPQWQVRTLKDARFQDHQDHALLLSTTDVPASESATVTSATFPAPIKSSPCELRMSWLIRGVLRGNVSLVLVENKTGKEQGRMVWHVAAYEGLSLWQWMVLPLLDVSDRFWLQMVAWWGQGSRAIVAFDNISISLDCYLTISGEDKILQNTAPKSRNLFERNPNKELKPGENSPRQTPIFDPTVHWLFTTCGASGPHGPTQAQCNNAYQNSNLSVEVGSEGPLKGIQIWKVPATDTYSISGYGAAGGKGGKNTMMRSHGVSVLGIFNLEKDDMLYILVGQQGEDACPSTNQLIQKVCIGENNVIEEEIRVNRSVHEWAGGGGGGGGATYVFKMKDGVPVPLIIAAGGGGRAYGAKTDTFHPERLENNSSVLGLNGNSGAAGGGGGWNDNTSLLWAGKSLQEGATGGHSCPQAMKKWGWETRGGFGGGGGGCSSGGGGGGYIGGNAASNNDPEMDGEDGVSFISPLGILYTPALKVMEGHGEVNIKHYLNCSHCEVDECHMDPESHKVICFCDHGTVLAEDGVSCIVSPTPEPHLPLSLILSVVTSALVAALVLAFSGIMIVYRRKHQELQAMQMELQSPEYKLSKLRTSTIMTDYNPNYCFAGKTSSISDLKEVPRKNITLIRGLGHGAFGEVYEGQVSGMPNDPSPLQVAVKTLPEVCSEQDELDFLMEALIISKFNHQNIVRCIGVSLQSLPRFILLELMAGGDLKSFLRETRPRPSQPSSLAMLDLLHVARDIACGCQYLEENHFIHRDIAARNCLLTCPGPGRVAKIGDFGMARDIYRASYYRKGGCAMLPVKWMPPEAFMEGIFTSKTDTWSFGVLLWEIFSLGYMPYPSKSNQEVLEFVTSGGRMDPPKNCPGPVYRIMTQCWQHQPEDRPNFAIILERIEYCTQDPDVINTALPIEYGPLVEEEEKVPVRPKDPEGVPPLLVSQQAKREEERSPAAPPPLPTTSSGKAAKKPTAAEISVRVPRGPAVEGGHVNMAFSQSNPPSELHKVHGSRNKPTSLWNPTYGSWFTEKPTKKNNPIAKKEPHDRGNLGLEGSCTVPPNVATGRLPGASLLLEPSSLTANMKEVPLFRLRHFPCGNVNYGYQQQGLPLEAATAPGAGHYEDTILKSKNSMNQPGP
Test: Kinase Profiling Assay
Assay type: biochemical
Details: 100 μM
quantity_name: % activity (%)
One number for each entry, in %.

[
  {
    "ordered_residues": "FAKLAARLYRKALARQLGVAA [MMI-0300]",
    "measurement": 19
  },
  {
    "ordered_residues": "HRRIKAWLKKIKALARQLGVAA [MMI-0500]",
    "measurement": 12
  },
  {
    "ordered_residues": "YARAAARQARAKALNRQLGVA [MMI-0200]",
    "measurement": 95
  }
]

// below: % activity requested for another sequence
Challenge: // returns reported % activity for input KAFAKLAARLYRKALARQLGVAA [MMI-0400]
Response given: 16

###

Task for the reader: assign each of the following sequences its reported % activity.
Target: CaMKIV(h) (Homo sapiens, UniProt Q16566)
Sequence (Q16566 1-473): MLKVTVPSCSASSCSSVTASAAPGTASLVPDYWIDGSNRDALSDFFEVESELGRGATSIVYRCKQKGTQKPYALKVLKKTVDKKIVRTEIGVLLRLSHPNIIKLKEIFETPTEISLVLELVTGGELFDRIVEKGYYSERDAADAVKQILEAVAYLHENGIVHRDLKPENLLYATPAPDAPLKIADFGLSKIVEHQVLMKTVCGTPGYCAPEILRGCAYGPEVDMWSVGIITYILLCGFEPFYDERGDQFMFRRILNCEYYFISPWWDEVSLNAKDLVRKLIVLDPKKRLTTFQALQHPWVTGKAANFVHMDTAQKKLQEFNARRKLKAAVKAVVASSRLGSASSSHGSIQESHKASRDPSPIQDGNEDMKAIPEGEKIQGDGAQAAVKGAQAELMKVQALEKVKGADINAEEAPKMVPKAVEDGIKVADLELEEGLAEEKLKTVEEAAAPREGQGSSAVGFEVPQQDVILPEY
Assay: Kinase Profiling Assay
Type: biochemical
Conditions: 100 μM
Give bare numbers, in %.

Example results:
[
  {
    "ordered_residues": "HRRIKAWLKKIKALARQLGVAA [MMI-0500]",
    "tested_target": "CaMKIV(h) (Homo sapiens, UniProt Q16566)",
    "units": "%",
    "% activity": "−1"
  },
  {
    "ordered_residues": "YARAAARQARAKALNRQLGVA [MMI-0200]",
    "tested_target": "CaMKIV(h) (Homo sapiens, UniProt Q16566)",
    "units": "%",
    "% activity": 71
  },
  {
    "ordered_residues": "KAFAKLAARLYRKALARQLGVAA [MMI-0400]",
    "tested_target": "CaMKIV(h) (Homo sapiens, UniProt Q16566)",
    "units": "%",
    "% activity": 18
  }
]

Now consider the entry below.
Challenge: If you can, please state the reported % activity value of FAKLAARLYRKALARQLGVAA [MMI-0300] .
Response given: 17
